biological target: Histamine H3 receptor (Homo sapiens, UniProt Q9Y5N1); test: Antagonist activity at human histamine H3 receptor expressed in HEK293 cells assessed as inhibition of calcium mobilization by FLIPR assay; format: functional, cell-based
Sequence (Q9Y5N1 whole entry): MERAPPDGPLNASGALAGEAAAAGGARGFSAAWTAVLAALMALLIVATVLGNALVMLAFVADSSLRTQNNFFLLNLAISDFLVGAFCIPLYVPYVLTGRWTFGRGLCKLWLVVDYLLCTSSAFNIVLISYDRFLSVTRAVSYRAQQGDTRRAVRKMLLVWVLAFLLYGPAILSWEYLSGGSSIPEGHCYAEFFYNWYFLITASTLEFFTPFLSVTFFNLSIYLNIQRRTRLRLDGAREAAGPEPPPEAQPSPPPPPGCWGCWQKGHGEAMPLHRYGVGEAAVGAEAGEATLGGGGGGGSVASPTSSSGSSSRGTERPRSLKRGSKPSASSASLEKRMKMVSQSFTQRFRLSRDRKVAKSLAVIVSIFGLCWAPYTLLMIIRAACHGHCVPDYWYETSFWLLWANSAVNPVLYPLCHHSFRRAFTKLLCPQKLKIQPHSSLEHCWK
Attribute: IC50

compound	unit-tag	IC50
CC1CCCN1C1CCN(c2ccc(NC(=O)N3CCN(C)CC3)cc2)C1 (stereo not given)	nM	0.2
CCN(CC)CCOc1ccc(NC(=S)Nc2ccc(OCC(C)C)cc2)cc1	nM	0.6
Cc1cc(NC(=O)N2CCN(C)CC2)ccc1N1CCC(N2CCCC2C)C1 (stereo not given)	nM	1.1
CC1CCCN1C1CCN(c2ccc(NC(=O)N3CCN(c4ccccc4)CC3)cc2)C1 (stereo not given)	nM	0.4
Cc1cc(NC(=O)NCc2cc(Cl)cc(Cl)c2)ccc1N1CCC(N2CCCC2C)C1 (stereo not given)	nM	1.1
